# maps each entry to its pIC50
Target: UniProt P32246
Sequence (P32246 whole entry): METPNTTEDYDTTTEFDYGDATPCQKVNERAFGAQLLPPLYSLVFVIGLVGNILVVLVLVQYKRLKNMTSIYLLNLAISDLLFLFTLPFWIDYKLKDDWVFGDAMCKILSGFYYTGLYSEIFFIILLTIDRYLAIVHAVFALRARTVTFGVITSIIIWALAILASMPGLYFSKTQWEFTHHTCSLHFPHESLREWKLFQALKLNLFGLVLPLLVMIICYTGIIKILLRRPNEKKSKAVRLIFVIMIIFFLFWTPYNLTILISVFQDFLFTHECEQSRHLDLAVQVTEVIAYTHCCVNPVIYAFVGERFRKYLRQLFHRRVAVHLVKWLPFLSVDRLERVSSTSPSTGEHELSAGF
Assay: Chemotaxis assay (inhibition of CCR1 mediated migration)
Conditions: chemotaxis of THP-1 or monocyte cells toward CCR1 chemokine ligand (MIP-1α, CCL15/leukotactin); read-out: Avg Mig IC50
pIC50: −log10 of the molar value.
endpoint: pIC50

>>> observed("COc1cc(-n2ncc(N3CC[C@H](n4cc(C(F)(F)F)nc4C)C3=O)c2C(C)C)ccc1Cl")
"4.70 to 7.00"
>>> observed("Cc1nc(C(F)(F)F)cn1C1CCN(c2cnn(-c3ccc(F)cc3)c2C(C)C)C1=O (stereo not drawn)")
"≥ 7.00"
>>> observed("Cc1c(Cl)c(C(C)(C)O)nn1C1CCN(c2cnn(-c3ccc(F)cc3)c2C(C)C)C1=O (stereo not drawn)")
"4.70 to 7.00"
>>> observed("Cc1nc(C(F)(F)F)cn1C1CCN(c2cnn(-c3ccc(Cl)cc3)c2C2CCC2)C1=O (stereo not drawn)")
"≥ 7.00"
>>> observed("Cc1c(Cl)c(C(F)(F)F)nn1C1CCN(c2cnn(-c3cccc(F)c3)c2I)C1=O (stereo not drawn)")
"4.70 to 7.00"
>>> observed("Cc1nc(C(F)(F)F)cn1C1CCN(c2cnn(-c3ccc(Cl)cc3)c2C(C)C)C1=O (stereo not drawn)")
"≥ 7.00"
>>> observed("Cc1c(N2CCC(n3nc(C(F)(F)F)c(Cl)c3C)C2=O)cnn1-c1ccc(F)cc1 (stereo not drawn)")
"4.70 to 7.00"
>>> observed("Cc1c(Cl)c(C(F)(F)F)nn1C1CCN(c2cnn(-c3cccc(F)c3)c2C2CC2)C1=O (stereo not drawn)")
"4.70 to 7.00"
>>> observed("CC(C)c1c(N2CCC(n3cnc(C(F)(F)F)c3)C2=O)cnn1-c1ccc(F)cc1 (stereo not drawn)")
"4.70 to 7.00"
>>> observed("C/C=C(\\C)c1c(N2CCC(n3nc(C(F)(F)F)c(Cl)c3C)C2=O)cnn1-c1ccc(F)cc1 (stereo not drawn)")
"4.70 to 7.00"
>>> observed("Cc1nc(C(F)(F)F)cn1C1CCN(c2cnn(-c3ccc(F)cc3)c2OC(C)C)C1=O (stereo not drawn)")
"≥ 7.00"
>>> observed("Cc1nc(C(F)(F)F)cn1C1CCN(c2cnn(-c3ccc(Cl)cc3)c2C(F)(F)F)C1=O (stereo not drawn)")
"4.70 to 7.00"
>>> observed("CC(C)c1c(N2CCC(n3nc(-c4ncc[nH]4)c4c(N)ncnc43)C2=O)cnn1-c1ccc(F)cc1 (stereo not drawn)")
"4.70 to 7.00"
>>> observed("CC(C)c1c(N2CCC(n3nc(-c4ncc[nH]4)c4cccnc43)C2=O)cnn1-c1ccc(F)cc1 (stereo not drawn)")
"4.70 to 7.00"
>>> observed("Cc1nc(C(F)(F)F)cn1[C@H]1CCN(c2cnn(-c3ccc(Cl)cc3)c2C(C)C)C1=O")
"≥ 7.00"
